Target: C-cell calcium receptor (Rattus norvegicus)
Construct: Neoplastic C-cells derived from a rat medullary thyroid carcinoma (rMTC 6-23) were obtained from American Type Culture Collection; host or cells: rMTC 6-23 cells
Sequence (P48442 20-1079): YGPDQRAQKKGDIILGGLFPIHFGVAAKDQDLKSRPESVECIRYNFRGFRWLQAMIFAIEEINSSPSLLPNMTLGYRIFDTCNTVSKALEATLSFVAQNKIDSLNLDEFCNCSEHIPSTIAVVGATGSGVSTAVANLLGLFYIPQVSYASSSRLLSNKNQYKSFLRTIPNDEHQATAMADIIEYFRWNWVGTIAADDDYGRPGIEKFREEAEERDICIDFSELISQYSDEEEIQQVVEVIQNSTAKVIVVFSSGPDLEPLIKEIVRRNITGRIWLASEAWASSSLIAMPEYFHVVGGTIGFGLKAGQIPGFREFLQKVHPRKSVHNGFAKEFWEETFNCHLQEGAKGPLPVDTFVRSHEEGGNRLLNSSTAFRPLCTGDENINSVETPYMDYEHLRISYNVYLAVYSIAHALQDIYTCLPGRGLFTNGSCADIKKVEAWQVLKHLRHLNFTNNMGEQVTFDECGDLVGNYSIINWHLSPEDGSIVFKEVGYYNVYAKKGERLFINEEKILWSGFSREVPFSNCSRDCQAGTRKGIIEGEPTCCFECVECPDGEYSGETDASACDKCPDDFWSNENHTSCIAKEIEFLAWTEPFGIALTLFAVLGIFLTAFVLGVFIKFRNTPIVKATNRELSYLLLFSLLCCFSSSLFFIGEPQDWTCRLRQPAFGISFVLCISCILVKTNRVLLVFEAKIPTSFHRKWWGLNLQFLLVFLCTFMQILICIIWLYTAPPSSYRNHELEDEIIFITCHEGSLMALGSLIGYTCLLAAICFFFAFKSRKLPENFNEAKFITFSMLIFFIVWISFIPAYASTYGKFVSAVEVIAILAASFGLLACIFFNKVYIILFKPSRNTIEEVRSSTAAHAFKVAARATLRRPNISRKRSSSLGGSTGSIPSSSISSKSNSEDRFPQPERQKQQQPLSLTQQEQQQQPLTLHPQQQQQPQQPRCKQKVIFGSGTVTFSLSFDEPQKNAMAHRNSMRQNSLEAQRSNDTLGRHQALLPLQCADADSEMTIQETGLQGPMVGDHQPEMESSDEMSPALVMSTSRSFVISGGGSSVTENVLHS
Assay: cell-based
Assay type: cell-based
Conditions: read-out: EC50 for mobilizing intracellular Ca^2+ in C-cells; rMTC 6-23 cells
pEC50: −log10 of the molar value.
readout label: pEC50

In [3]: df
Out[3]:
                                   molecule                             tested_target  value_measured
0  NCCCNCCCCNCCCNCCCNCCCNC(=O)Cc1c[nH]c2ccccc12 [NPS 019, reference compound]  C-cell calcium receptor (Rattus norvegicus)            5.30

These entries and their values trace back to patent US5688938A.
